tested on: BT-20; assay: Cytotoxicity against human BT20 cells incubated for 72 hrs by SRB assay; format: functional, cell-based; conditions: BT-20, 72 h
Measured IC50, listed per entry.

Sample answers from the record:
                                   compound  measured
0    O=c1[nH]cc(F)c(=O)[nH]1 [FLUOROURACIL]  47300 nM
1  CC[C@@]1(O)C(=O)OCc2c1cc1n(c2=O)Cc2cc3ccccc3nc2-1 [CAMPTOTHECIN]     70 nM

We next turn to a different compound, shown below.
INPUT: Any idea what IC50 was measured for C#CC(=O)N1C(c2ccccc2)SC[C@H]1C(=O)OCC (mixture of isomers) ?
OUTPUT: 1600 nM
